Biological target: Prostaglandin E synthase (Homo sapiens)
Sequence (O14684 whole entry): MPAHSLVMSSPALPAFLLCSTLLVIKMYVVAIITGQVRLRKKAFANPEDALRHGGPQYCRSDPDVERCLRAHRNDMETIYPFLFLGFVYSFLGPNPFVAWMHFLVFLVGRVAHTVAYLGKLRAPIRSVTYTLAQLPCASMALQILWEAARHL
Assay: Inhibition of mPGES-1-mediated PGE2 formation in interleukin-1beta-stimulated human A549 microsomal membranes preincubated for 15 mins before PGH2 addition by RP-HPLC analysis
Each record here notes measured IC50.

These solved cases illustrate the format of a correct answer.
[
  {
    "smilesData": "CCCC/C(=C\\c1cc(OCc2ccc(F)cc2)ccc1OCc1ccc(C(F)(F)F)cc1)C(=O)O",
    "IC50": "4.9 µM"
  },
  {
    "smilesData": "CCCC/C(=C\\c1cc(OCc2ccc3nc(C(F)(F)F)cc(OC)c3c2)ccc1OCc1ccc(C(F)(F)F)cc1)C(=O)O",
    "IC50": "3 µM"
  },
  {
    "smilesData": "CCCC/C(=C\\c1cc(OCc2ccc(Oc3ccccn3)cc2)ccc1OCc1ccc(C(F)(F)F)cc1)C(=O)O",
    "IC50": "10 µM"
  },
  {
    "smilesData": "CCCC/C(=C\\c1cc(OCc2cc(C(F)(F)F)cc(C(F)(F)F)c2)ccc1OCc1ccc(C(F)(F)F)cc1)C(=O)O",
    "IC50": "> 10 µM"
  },
  {
    "smilesData": "CCCC/C(=C\\c1cc(OCCc2ccc(C(F)(F)F)cc2)ccc1OCc1ccc(C(F)(F)F)cc1)C(=O)O",
    "IC50": "3.1 µM"
  },
  {
    "smilesData": "CCCC/C(=C\\c1cc(OCc2ccc(C(F)(F)F)cc2)ccc1OCc1ccc(C(F)(F)F)cc1)C(=O)O",
    "IC50": "> 10 µM"
  }
]

// IC50 lookup, key: CCCC/C(=C\c1cc(OCc2ccc(OCCN3CCOCC3)cc2)ccc1OCc1ccc(C(F)(F)F)cc1)C(=O)O
8.7 µM

I am curious: what IC50 value has been reported for CCCC/C(=C\c1cc(OCC(c2ccccc2)c2ccccc2)ccc1OCc1ccc(C(F)(F)F)cc1)C(=O)O ?
> 10 µM

* * *

Target: UniProtKB P09917
Sequence (P09917 whole entry): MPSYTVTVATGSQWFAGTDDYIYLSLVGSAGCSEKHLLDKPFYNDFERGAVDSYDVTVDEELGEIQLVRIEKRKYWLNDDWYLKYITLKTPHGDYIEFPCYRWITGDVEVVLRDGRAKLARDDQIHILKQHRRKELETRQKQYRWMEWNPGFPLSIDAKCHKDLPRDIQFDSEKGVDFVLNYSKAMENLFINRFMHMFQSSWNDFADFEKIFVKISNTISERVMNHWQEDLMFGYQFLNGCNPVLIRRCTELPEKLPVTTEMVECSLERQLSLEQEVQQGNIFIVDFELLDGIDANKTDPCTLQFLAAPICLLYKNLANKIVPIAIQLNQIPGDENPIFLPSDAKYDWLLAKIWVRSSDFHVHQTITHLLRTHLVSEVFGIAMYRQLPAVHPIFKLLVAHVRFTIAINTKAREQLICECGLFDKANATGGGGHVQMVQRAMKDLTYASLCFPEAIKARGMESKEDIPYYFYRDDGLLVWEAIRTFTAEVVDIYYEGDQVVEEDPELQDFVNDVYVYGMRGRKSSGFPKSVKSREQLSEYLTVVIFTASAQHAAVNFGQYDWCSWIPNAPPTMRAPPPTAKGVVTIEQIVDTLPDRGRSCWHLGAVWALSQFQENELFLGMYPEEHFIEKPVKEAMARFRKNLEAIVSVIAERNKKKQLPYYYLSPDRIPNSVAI
Assay: Inhibition of 5-LO in human PMNL assessed as reduction in 5-LO product formation pre-incubated for 15 mins before addition of arachidonic acid substrate by HPLC analysis
Conditions: read-out: IC50
pIC50: −log10 of the molar value.
Use t when the recorded pIC50 is no lower than 6; use f when it is lower.

[
  {
    "smilesData": "CCCC/C(=C\\c1cc(Oc2ccccc2)ccc1OCc1ccc(C(F)(F)F)cc1)C(=O)O",
    "labelValue": "f"
  },
  {
    "smilesData": "CCCC/C(=C\\c1cc(OCCc2ccc(C(F)(F)F)cc2)ccc1OCc1ccc(C(F)(F)F)cc1)C(=O)O",
    "labelValue": "t"
  },
  {
    "smilesData": "CCCC/C(=C\\c1cc(-c2ccccc2)ccc1OCc1ccc(C(F)(F)F)cc1)C(=O)O",
    "labelValue": "f"
  },
  {
    "smilesData": "CCCC/C(=C\\c1cc(OCc2ccc(Cl)c(Cl)c2)ccc1OCc1ccc(C(F)(F)F)cc1)C(=O)O",
    "labelValue": "t"
  },
  {
    "smilesData": "CCCC/C(=C\\c1cc(OCc2ccc(F)cc2)ccc1OCc1ccc(C(F)(F)F)cc1)C(=O)O",
    "labelValue": "t"
  },
  {
    "smilesData": "CCCC/C(=C\\c1cc(OCC(c2ccccc2)c2ccccc2)ccc1OCc1ccc(C(F)(F)F)cc1)C(=O)O",
    "labelValue": "t"
  },
  {
    "smilesData": "CCCC/C(=C\\c1cc(OCc2ccc(Oc3ccccn3)cc2)ccc1OCc1ccc(C(F)(F)F)cc1)C(=O)O",
    "labelValue": "t"
  }
]

Given CCCC/C(=C\c1cc(OCc2ccccc2)ccc1OCc1ccc(C(F)(F)F)cc1)C(=O)O , state whether its pIC50 is at least 6.
t
